Would you mind telling me the reported IC50 [M], in the presence of 100 pM Apelin (at 5 uM Forskolin), CRE-luc of each entry?
Biological target: T1, full-length human APLNR (hAPLNR) (human, UniProt P35414 1-380)
T1 sequence: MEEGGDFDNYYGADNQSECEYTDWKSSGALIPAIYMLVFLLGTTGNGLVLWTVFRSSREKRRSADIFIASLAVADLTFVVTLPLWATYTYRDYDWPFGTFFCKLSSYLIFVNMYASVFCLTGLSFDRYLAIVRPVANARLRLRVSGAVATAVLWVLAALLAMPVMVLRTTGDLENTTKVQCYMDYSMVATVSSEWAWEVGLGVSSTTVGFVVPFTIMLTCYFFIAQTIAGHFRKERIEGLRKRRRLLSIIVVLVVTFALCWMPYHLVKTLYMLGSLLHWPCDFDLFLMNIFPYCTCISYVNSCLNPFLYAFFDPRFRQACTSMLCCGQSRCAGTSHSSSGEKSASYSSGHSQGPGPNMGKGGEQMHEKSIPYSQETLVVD
Assay: cell-based or functional assay
Give bare numbers, in M.

[[record]]
binder = "H2aM9221N (antibody, mouse IgG2a, V domains shown) VH: EVQLVESGGGLVQPGGSLRLSCVASGFTFNNYWMSWVRQAPGKGLEWVANIKQDGSERYYVDSVKGRFTISRGDAKNSLYLQMKSLRAEDTAVYFCARDRFGYSFYDKGVRYYYGMDVWGQGTTVTVSS VL: DIQMTQSPSSLSASVGDRVTITCRASQGIRNDLGWYQQRPGKAPKRLIYAASSLQTGVPSRFSGSGSGTEFTLTISGLQPEDFATYYCLQHNSYPRTFGQGTKVEIR"
measuredvalue = "5e-09"

[[record]]
binder = "H2aM9224N (antibody, mouse IgG2a, V domains shown) VH: EVQLEESGGGLVQPGGSLRLSCAASGFTFTSFWMSWVRQVPGKGLQWVANIKQDGTEKYYVDSVKGRFTISRDNAKNSLYLQMNSLRAEDTAVYYCARERFGYSLFDKGVRYYYGMDVWGQGTSVTVSS VL: DIQMTQSPSSLSASVGDRVTITCRASQGIRNDLGWYQQKPGKAPKRLIYAASSLQSGVPSRFSGSGSGTEFTLTISGLQPEDFATYYCLQHNSYPRTFGQGTKVEIK"
measuredvalue = "3.6e-09"


Proceed to the following item.
Any idea what IC50 [M], in the presence of 100 pM Apelin (at 5 uM Forskolin), CRE-luc was measured for H2aM9229N (antibody, mouse IgG2a, V domains shown) VH: EVQLVESGGGLVQPGGSLRLSCVASGFTFNNYWMSWVRQAPGKGLEWVANIKQDGSERYYVDSVKGRFTISRGDAKNSLYLQMKSLRAEDTAVYFCARDRFGYSFYDKGVRYYYGMDVWGQGTTVTVSS VL: DIQMTQSPSSLSASVGDRVTITCRASQGIRNDLGWYQQRPGKAPKRLIYAASSLQTGVPSRFSGSGSGTEFTLTISGLQPDDFATYYCLQHNSYPRTFGQGTKVEIR ?
3.5e-09
